Listed here: items and their measured log10 IC50.
- system_name: Cysteinyl leukotriene receptor (Cavia porcellus)
- assay_name: In vitro inhibition of SRS-A-induced contractions in guinea pig ileum
Note: values are log10 of IC50 expressed in µM.

Some entries whose results are on file:
>>> measured_result("CCCc1c(OCCCOc2ccc3ccc(OCCCC(=O)O)cc3c2C(C)=O)ccc(C(C)=O)c1O")
-1.10
>>> measured_result("CCCc1c(OCCCOc2ccc3ccc(OCCCC(=O)O)cc3c2)ccc(C(C)=O)c1O")
0.70
>>> measured_result("CCCc1c(OCCCOc2c(C(C)=O)ccc(OCCCC(=O)O)c2CCC)ccc(C(C)=O)c1O")
-0.70
>>> measured_result("CCCc1c(OCCCCCOc2c(C(C)=O)ccc(OCCCC(=O)O)c2CCC)ccc(C(C)=O)c1O")
0.00
>>> measured_result("CCCc1c(OCCCOc2c(C(C)=O)ccc(OCC(=O)O)c2CCC)ccc(C(C)=O)c1O")
0.30
>>> measured_result("CCCc1c(OCCOCCOc2c(C(C)=O)ccc(OCCCCCC(=O)O)c2CCC)ccc(C(C)=O)c1O")
-0.70
>>> measured_result("CCCc1c(OCCCOc2ccc3ccc(OCC(=O)O)cc3c2)ccc(C(C)=O)c1O")
-0.52
>>> measured_result("CCCc1c(OCCCCCOc2c(C(C)=O)ccc(OCC(=O)O)c2CCC)ccc(C(C)=O)c1O")
-1.00

Reported log10 IC50, compound CCCc1c(OCCCOc2c(C(C)=O)ccc(OCCCCCC(=O)O)c2CCC)ccc(C(C)=O)c1O : ____
0.00

Try this compound too: CCCc1c(OCCCOCCCOc2c(C(C)=O)ccc(OCC(=O)O)c2CCC)ccc(C(C)=O)c1O
-0.40

Try this compound too: CCCc1c(OCCOCCOc2c(C(C)=O)ccc(OCCCC(=O)O)c2CCC)ccc(C(C)=O)c1O
-1.00

Try this compound too: CCCc1c(OCCOCCOc2c(C(C)=O)ccc(OCC(=O)O)c2CCC)ccc(C(C)=O)c1O
-0.70

Try this compound too: CCCc1c(OCCCCOCCCCOc2c(C(C)=O)ccc(OCC(=O)O)c2CCC)ccc(C(C)=O)c1O
-0.30

Try this compound too: CCCc1c(OCCCCCOc2ccc3ccc(OCC(=O)O)cc3c2C(C)=O)ccc(C(C)=O)c1O
-0.70

Try this compound too: CCCc1c(OCCCOCCCOc2c(C(C)=O)ccc(OCCCC(=O)O)c2CCC)ccc(C(C)=O)c1O
-0.70

Try this compound too: CCCc1c(OCCCOc2cccc(OCC(=O)O)c2)ccc(C(C)=O)c1O
-0.30

Try this compound too: CCCc1c(OCCCOc2ccc3ccc(OCC(=O)O)cc3c2C(C)=O)ccc(C(C)=O)c1O
-0.70
